Item-by-item account of polymerase ribozyme fitness (log ratio)
B1: TPR 5TU (parent)
chain: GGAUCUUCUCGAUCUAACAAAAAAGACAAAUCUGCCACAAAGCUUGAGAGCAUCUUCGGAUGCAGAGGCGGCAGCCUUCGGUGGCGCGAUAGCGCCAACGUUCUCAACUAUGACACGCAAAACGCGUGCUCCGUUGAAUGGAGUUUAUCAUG

# Variants of: B1
# Method description: polymerase ribozyme fitness, log enrichment relative to wild type (log ratio); higher = more active; in vitro selection for triplet polymerase activity
Variants at the floor of the assay were thinned out.

Example results:
Look up polymerase ribozyme fitness (log ratio): A19C G88A C95A C99U
≤ -4.2

// same read-out, input: A3U A12G A28U C87U
≤ -4.2

Please answer likewise for A64G G84U U151A
≤ -4.2

Same for G83U C95U
-1.53

Now take the following variant into account.
I am curious: what polymerase ribozyme fitness (log ratio) value has been reported for G59C A73G C85A ?
-2.84

Hey, just so you know, these numbers are from the RNAGym collection of RNA variant scans (doi:10.1073/pnas.2313332121).
